# ASSAYED TARGET: T1, SA2 (STAG2) (UniProt Q8N3U4 1-1231)
# T1 sequence: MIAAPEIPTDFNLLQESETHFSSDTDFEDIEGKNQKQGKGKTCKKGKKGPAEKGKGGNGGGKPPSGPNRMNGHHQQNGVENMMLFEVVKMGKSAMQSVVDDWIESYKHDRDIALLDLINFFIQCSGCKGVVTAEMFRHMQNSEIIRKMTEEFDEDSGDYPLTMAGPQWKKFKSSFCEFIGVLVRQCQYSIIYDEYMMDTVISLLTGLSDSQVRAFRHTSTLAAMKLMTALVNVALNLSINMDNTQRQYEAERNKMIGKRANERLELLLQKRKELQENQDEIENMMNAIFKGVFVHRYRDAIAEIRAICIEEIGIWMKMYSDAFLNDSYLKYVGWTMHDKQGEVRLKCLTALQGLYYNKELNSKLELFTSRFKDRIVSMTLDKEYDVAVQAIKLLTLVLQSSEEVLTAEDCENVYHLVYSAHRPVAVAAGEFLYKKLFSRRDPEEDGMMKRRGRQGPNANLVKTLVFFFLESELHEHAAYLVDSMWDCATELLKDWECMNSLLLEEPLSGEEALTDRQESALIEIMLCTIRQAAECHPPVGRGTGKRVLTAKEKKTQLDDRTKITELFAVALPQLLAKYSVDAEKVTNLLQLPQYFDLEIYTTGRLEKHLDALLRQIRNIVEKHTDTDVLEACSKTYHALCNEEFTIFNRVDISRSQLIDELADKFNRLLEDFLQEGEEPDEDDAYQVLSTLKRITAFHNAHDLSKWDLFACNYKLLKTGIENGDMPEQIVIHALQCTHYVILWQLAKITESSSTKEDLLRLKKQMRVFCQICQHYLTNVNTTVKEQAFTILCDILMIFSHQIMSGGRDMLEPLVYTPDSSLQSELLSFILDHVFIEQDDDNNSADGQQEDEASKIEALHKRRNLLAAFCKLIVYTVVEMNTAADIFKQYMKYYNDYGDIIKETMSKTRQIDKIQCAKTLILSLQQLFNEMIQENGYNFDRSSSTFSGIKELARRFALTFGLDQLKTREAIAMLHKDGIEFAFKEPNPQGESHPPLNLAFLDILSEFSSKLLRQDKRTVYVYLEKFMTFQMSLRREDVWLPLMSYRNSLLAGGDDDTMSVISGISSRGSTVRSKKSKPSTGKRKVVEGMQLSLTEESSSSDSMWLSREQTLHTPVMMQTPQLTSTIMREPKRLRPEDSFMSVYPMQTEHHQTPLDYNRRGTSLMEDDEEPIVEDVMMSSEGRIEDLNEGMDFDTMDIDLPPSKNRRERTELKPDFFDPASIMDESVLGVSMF
# ASSAY PROCEDURE: fluorescence anisotropy
Reported pKd values follow for various binders
Please express pKd as -log10 of the molar concentration.

Example cases with answers are listed next.
BINDER: 66 nt RNA-2 (ssRNA) RNA: UCGAAUUCUUGUUCUACAUCAACACCCACACACCCAACCACUCACCCUUACACUGUACGGAUCCAG
OBSERVABLE: pKd
TEST RESULT: 8.29
--
BINDER: Model R-loop (mixed) RNA: GCAGCUGGCACGACAGGUAUGAAUC DNA 1: GCCAGGGACGAGGTGAACCTGCAGGTGGGCGGCTACTACTTAGATGTCATCCGAGGCTTATTGGTAGAATTCGGCAGCGTCATGCGACGGC DNA 2: GCCGTCGCATGACGCTGCCGAATTCTACCACGCGATTCATACCTGTCGTGCCAGCTGCTTTGCCCACCTGCAGGTTCACCTCGTCCCTGGC
OBSERVABLE: pKd
TEST RESULT: 7.44

Moving on to the next binder.
Challenge: Indicate the recorded pKd value for this binder: RNA:DNA hybrid (45 bp) (DNA:RNA) RNA: CUGGAUCCGUACAGUGUAAGGGUGAGUGGUUGGGUGUGUGGGUGU DNA: ACACCCACACACCCAACCACTCACCCTTACACTGTACGGATCCAG
Response given: 7.50
